Biological target: Leukotriene B4 receptor 1 (Homo sapiens, UniProt Q15722)
Sequence (Q15722 whole entry): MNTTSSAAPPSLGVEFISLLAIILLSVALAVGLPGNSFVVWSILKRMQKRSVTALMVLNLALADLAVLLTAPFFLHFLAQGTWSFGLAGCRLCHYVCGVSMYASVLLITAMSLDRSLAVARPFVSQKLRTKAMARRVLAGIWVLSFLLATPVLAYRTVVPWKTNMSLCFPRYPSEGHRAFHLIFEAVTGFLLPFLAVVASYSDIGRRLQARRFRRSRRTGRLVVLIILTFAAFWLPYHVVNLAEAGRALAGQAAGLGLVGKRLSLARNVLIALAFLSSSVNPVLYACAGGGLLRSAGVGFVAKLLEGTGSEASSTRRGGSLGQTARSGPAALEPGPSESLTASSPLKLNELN
Test: Antagonistic activity in human polymorphonuclear (PMN) LTB4 receptor
Format: functional
experimental readout: pIC50
Hey, just a heads up that pIC50 is the negative log base 10 of the concentration in molar.

Task: # input molecule: CN(CCc1ccccc1)C(=O)Cc1ccc(OCc2ccccc2)cc1 ; wanted: its pIC50
Output: 5.33

###

Biological target: UniProt Q15722
Assay: Antagonistic activity against human polymorphonuclear (PMN) LTB4 receptor
Assay type: functional
experimental readout: pIC50
Field pIC50 (float): negative decimal logarithm of the concentration in molar.

Task: For the record COc1ccc(/C=C/CCCCOc2ccc(C(=O)c3cccc(C(=O)O)c3)cc2CCC(=O)O)cc1 , what value of pIC50 is listed for UniProt Q15722?
Output: 7.92

Just for reference, ChEMBL document CHEMBL1126258 is where these values come from.
